target: hFASN enzyme (full length) (Homo sapiens); construct: 10 μL hFASN enzyme (full length, 300 ng, purified in house); made in house; experiment: Fatty Acid Synthase (FASN) inhibition scintillation proximity assay; assay type: biochemical; conditions: read-out: Human FASN % inhibition @ 10 μM, 10 μM test compound
property-measured: inhibition at 10 µM (%)

[I] O=C(N1CC(CN2C(=O)C3(CC3)N=C2c2ccc(-c3ccc4cc(Cl)ccc4c3)cc2F)C1)C1(O)CC1
[II] O=C(CN1CC[C@@H](CN2C(=O)C3(CCN(Cc4ccccc4)CC3)N=C2c2ccc(-c3ccc4occc4c3)cc2)C1)C1CC1
Identify the entry with the smaller inhibition at 10 µM: I or II . Answer with the label corresponding to your selection.
II

* * *

molecular target: hFASN enzyme (full length) (Homo sapiens, UniProt P49327); construct: 10 μL hFASN enzyme (full length, 300 ng, purified in house); made in house; test: Fatty Acid Synthase (FASN) inhibition scintillation proximity assay; format: biochemical; settings: read-out: Human FASN pIC50 (converted)
Sequence (P49327 whole entry): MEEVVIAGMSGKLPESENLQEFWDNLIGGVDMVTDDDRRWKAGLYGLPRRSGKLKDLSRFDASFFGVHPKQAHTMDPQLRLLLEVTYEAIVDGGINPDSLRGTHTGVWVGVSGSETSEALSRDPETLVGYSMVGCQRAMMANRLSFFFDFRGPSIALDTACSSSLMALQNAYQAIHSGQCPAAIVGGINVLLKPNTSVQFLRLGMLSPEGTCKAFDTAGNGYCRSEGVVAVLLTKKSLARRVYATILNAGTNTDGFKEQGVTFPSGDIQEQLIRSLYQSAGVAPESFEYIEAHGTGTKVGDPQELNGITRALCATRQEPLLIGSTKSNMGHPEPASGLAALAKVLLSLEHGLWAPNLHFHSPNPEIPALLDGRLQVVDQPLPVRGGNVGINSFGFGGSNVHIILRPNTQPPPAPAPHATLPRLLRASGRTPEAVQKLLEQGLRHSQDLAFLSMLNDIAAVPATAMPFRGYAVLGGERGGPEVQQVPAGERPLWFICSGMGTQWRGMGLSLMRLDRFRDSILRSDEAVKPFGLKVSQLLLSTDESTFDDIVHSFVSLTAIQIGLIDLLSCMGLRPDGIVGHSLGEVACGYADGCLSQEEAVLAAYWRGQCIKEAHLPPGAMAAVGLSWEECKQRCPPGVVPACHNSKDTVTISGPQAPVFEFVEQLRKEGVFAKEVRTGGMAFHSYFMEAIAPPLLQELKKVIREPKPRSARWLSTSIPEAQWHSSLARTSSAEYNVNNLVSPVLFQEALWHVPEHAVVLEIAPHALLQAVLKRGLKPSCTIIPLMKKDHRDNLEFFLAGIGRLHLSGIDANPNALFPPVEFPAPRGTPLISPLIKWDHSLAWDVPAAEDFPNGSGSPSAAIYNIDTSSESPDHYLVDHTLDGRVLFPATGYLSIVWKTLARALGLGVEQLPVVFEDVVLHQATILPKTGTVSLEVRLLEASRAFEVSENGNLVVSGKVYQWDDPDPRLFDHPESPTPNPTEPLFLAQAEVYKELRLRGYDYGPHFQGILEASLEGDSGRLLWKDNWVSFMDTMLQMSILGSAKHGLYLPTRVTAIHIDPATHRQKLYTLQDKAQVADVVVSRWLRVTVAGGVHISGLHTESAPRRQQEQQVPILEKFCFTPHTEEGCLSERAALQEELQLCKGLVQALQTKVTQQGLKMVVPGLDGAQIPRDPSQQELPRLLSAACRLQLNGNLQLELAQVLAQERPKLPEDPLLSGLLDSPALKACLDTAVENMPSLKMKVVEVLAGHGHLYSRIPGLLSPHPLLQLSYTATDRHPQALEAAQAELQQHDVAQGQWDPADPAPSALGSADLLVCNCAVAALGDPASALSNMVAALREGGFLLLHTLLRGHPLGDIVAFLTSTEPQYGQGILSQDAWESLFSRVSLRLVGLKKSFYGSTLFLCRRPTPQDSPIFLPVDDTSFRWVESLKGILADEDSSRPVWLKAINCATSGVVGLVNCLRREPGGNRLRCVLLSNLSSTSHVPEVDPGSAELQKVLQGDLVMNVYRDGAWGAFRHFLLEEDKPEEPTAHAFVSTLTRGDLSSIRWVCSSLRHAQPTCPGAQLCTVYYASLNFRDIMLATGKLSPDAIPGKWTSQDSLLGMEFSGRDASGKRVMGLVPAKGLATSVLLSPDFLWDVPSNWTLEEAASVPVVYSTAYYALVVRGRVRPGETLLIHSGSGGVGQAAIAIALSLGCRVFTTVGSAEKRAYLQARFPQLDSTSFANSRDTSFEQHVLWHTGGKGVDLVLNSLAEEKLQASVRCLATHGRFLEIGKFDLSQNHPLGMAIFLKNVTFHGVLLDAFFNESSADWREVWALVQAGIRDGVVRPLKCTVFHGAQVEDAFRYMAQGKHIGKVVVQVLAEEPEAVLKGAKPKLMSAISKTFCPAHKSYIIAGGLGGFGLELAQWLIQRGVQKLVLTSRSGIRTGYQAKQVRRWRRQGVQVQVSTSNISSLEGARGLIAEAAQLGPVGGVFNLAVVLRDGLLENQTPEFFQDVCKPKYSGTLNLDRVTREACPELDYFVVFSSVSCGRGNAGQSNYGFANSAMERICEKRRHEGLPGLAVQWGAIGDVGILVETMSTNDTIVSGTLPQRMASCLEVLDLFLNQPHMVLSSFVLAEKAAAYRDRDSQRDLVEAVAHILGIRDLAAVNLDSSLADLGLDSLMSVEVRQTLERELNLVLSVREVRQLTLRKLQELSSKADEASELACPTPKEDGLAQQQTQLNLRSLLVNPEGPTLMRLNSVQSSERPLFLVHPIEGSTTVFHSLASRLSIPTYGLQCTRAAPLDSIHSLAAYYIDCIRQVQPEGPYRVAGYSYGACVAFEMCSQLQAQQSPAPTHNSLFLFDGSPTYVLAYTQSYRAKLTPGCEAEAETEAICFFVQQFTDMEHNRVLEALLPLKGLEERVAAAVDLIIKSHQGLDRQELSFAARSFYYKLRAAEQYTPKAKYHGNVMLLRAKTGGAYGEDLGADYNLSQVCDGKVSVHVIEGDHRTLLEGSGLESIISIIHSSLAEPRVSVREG
property-measured: IC50 (nM)

Sample records with IC50:
molecule: CC(C)n1ccc2cc(-c3ccc(C4=NC5(CC5)C(=O)N4CC4CN(C(=O)C5CC5)C4)cc3)ccc21
unit-label: nM
IC50: 2880

molecule: Cn1ncc2ccc(-c3ccc(C4=NC5(CC5)C(=O)N4C[C@@H]4CCN(C(=O)C5CC5)C4)cc3)cc21
unit-label: nM
IC50: 70.8

molecule: Cc1cc2cc(-c3ccc(C4=NC5(CC5)C(=O)N4C[C@@H]4CCN(C(=O)C5CC5)C4)c(C)c3)ccc2[nH]1
unit-label: nM
IC50: 57.5

molecule: O=C(C1CC1)N1CC(CN2C(=O)C3(CC3)N=C2c2ccc(-c3ccc4c(cnn4CC4CC4)c3)cc2F)C1
unit-label: nM
IC50: 513

molecule: O=C(C1CC1)N1CC[C@@H](CN2C(=O)C3(CC3)N=C2c2ccc(-c3ccc4cccc(F)c4c3)cc2F)C1
unit-label: nM
IC50: 16.2

[I] Cc1cc(-c2ccc3cc(C)c(Cl)nc3c2)ccc1C1=NC2(CC2)C(=O)N1CC1CN(C(=O)C2(C)CC2)C1
[II] Cc1cc(-c2ccc3cnn(C)c3c2)ccc1C1=NC2(CC2)C(=O)N1CC1CN(C(=O)C2(C)CC2)C1
I'd appreciate it if you could identify which of I and II has the greater IC50. Answer with the label corresponding to your selection.
I
(I: 186 nM, II: 64.6 nM)

[a] Cc1cc(-c2ccc3nn(C)c(CO)c3c2)ccc1C1=NC2(CC2)C(=O)N1CC1CN(C(=O)C2CC2)C1
[b] COCc1c2cc(-c3ccc(C4=NC5(CC5)C(=O)N4CC4CN(C(=O)C5CC5)C4)c(C)c3)ccc2nn1C
[c] O=C(C1CC1)N1CC(CN2C(=O)C3(CCN(CCO)CC3)N=C2c2ccc(-c3ccc4[nH]ccc4c3)cc2)C1
Output the entries ranked by IC50 from maximum down to minimum. Could you list the labels in the order requested?
b, a, c
(b: 9550 nM, a: 3310 nM, c: 158 nM)

* * *

biological target: hFASN enzyme (full length) (Homo sapiens, UniProt P49327); construct: 10 μL hFASN enzyme (full length, 300 ng, purified in house); made in house; assay: Fatty Acid Synthase (FASN) inhibition scintillation proximity assay; type: biochemical; conditions: read-out: Human FASN % inhibition @ 10 μM, 10 μM test compound
property-measured: inhibition at 10 µM (%)

Sample records with inhibition at 10 µM:
structure-smiles-string: Cn1ncc2cc(-c3ccc(C4=NC5(CCN(C(=O)C(F)(F)F)CC5)C(=O)N4C[C@@H]4CCN(C(=O)C5CC5)C4)cc3)ccc21
property-measured: inhibition at 10 µM
assay-result: 91

structure-smiles-string: O=C(C1CC1)N1CC(CN2C(=O)C3(CC3)N=C2c2ccc(-c3ccc(-c4cnn(C5CC5)c4)cc3)cc2F)C1
property-measured: inhibition at 10 µM
assay-result: 98

structure-smiles-string: O=C([C@H]1CCCO1)N1CC(CN2C(=O)C3(CCOCC3)N=C2c2ccc(-c3ccc4occc4c3)cc2)C1
property-measured: inhibition at 10 µM
assay-result: 86

[A] O=C(C1CC1)N1CC(CN2C(=O)C3(CC3)N=C2c2ccc(-c3cccc(NS(=O)(=O)C4CC4)c3)cc2F)C1
[B] Cc1cc(-c2ccc(-c3ccnn3CC(C)C)cc2)ccc1C1=NC2(CC2)C(=O)N1CC1CN(C(=O)C2(C)CC2)C1
Identify the entry with the smaller inhibition at 10 µM: A or B . Answer with the label corresponding to your selection.
B

* * *

molecular target: hFASN enzyme (full length) (Homo sapiens); construct: 10 μL hFASN enzyme (full length, 300 ng, purified in house); made in house; assay: Fatty Acid Synthase (FASN) inhibition scintillation proximity assay; format: biochemical; settings: read-out: Human FASN pIC50 (converted)
property-measured: IC50 (nM)

Sample records with IC50:
structure-smiles-string: Cc1cc(-c2ccc(-c3cnn(C4CC4)c3)cc2)ccc1C1=NC2(CC2)C(=O)N1CC1CN(C(=O)C2CC2)C1
IC50 / nM: 39.8
//
structure-smiles-string: CC(C)S(=O)(=O)c1cccc(-c2ccc(C3=NC4(CC4)C(=O)N3C[C@@H]3CCN(C(=O)C4CC4)C3)c(F)c2)c1
IC50 / nM: 2750
//
structure-smiles-string: Cn1nc(CO)c2cc(-c3ccc(C4=NC5(CC5)C(=O)N4CC4CN(C(=O)C5CC5)C4)cc3)ccc21
IC50 / nM: 263
//
structure-smiles-string: Cn1ncc2cc(-c3ccc(C4=NC5(CC5)C(=O)N4CC4CN(C(=O)C5CC5)C4)c(Cl)c3)ccc21
IC50 / nM: 135
//
structure-smiles-string: Cc1cc(-c2ccc3ccc(C(F)(F)F)nc3c2)ccc1C1=NC2(CC2)C(=O)N1CC1CN(C(=O)C2(C)CC2)C1
IC50 / nM: 3980
//
structure-smiles-string: O=C(C1CC1)N1CC[C@@H](CN2C(=O)C3(CC3)N=C2c2ccc(-c3ccc4sccc4c3)cc2)C1
IC50 / nM: 21.9
//
structure-smiles-string: Cn1ncc2cc(-c3ccc(C4=NC5(CCNCC5)C(=O)N4CC4CN(C(=O)C5CC5)C4)cc3)ccc21
IC50 / nM: 8910

[P] N#Cc1cc2cc(-c3ccc(C4=NC5(CC5)C(=O)N4C[C@@H]4CCN(C(=O)C5CC5)C4)c(F)c3)ccc2o1
[Q] O=C(C1CC1)N1CC[C@@H](CN2C(=O)C3(CC3)N=C2c2ccc(-c3cccc(S(=O)(=O)C4CC4)c3)cc2F)C1
[R] O=C(C1CC1)N1CC[C@@H](CN2C(=O)C3(CC3)N=C2c2ccc(-c3cccc(NS(=O)(=O)C4CC4)c3)cc2F)C1
Output the entries ranked by IC50 from maximum down to minimum. Could you list the labels in the order requested?
Q, R, P

* * *

Target: hFASN enzyme (full length) (Homo sapiens, UniProt P49327)
Construct: 10 μL hFASN enzyme (full length, 300 ng, purified in house); made in house
Test: Fatty Acid Synthase (FASN) inhibition scintillation proximity assay
Format: biochemical
Details: read-out: Human FASN % inhibition @ 10 μM, 10 μM test compound
Description: In this assay, inhibition of FASN activity is measured using ^3H-acetyl-CoA and malonyl-CoA as substrates. ^3H-Acetyl CoA is converted to ^3H-palmitate through a series of reactions by the FASN protein, which contains 7 functional domains and carries out 7 enzymatic reactions to ultimately produce ^3H-palmitate. The assay principle is based upon the fact that ^3H-acetyl-CoA is hydrophilic and the end product, ^3H-palmitate is hydrophobic. […]
property-measured: inhibition at 10 µM (%)

Sample records with inhibition at 10 µM:
molecule: N#Cc1ccc2cc(-c3ccc(C4=NC5(CC5)C(=O)N4CC4CN(C(=O)C5CC5)C4)c(F)c3)ccc2c1 [compound 222]
assayed-system: hFASN enzyme (full length) (Homo sapiens, UniProt P49327)
property-measured: inhibition at 10 µM
assay-result: 103
//
molecule: O=C(C1CC1)N1CC[C@@H](CN2C(=O)C3(CC3)N=C2c2cnc(-c3ccc4occc4c3)cn2)C1 [compound 439]
assayed-system: hFASN enzyme (full length) (Homo sapiens, UniProt P49327)
property-measured: inhibition at 10 µM
assay-result: 48
//
molecule: Cc1cc(-c2ccc(-c3ccnn3C)cc2)ccc1C1=NC2(CC2)C(=O)N1C[C@@H]1CCN(C(=O)C2(C)CC2)C1 [compound 623]
assayed-system: hFASN enzyme (full length) (Homo sapiens, UniProt P49327)
property-measured: inhibition at 10 µM
assay-result: 101
//
molecule: COC(=O)N1CC2(C1)N=C(c1ccc(-c3ccc4occc4c3)cc1)N(C[C@@H]1CCN(S(C)(=O)=O)C1)C2=O [compound 956]
assayed-system: hFASN enzyme (full length) (Homo sapiens, UniProt P49327)
property-measured: inhibition at 10 µM
assay-result: 8

[A] O=C(N1CCCC1)N1CC(CN2C(=O)C3(CCOCC3)N=C2c2ccc(-c3ccc4occc4c3)cc2)C1 [compound 705]
[B] Cc1cc(-c2ccc3oc(C)c(C)c3c2)ccc1C1=NC2(CC2)C(=O)N1CC1CN(C(=O)C2CC2)C1 [compound 398]
[C] N#Cc1ccc(-c2ccc(C3=NC4(CC4)C(=O)N3CC3CCN(C(=O)C4CC4)CC3)cc2)cc1 [compound 7]
Output the entries ranked by inhibition at 10 µM from maximum down to minimum. Could you list the labels in the order requested?
B, A, C
(B: 102%, A: 71%, C: 33.7%)
